biological target: Amyloid-beta precursor protein (Homo sapiens); experiment: Displacement of [3H]PiB from human amyloid beta (1-40) at 100 nM after 180 mins by liquid scintillation counter
Sequence (P05067 whole entry): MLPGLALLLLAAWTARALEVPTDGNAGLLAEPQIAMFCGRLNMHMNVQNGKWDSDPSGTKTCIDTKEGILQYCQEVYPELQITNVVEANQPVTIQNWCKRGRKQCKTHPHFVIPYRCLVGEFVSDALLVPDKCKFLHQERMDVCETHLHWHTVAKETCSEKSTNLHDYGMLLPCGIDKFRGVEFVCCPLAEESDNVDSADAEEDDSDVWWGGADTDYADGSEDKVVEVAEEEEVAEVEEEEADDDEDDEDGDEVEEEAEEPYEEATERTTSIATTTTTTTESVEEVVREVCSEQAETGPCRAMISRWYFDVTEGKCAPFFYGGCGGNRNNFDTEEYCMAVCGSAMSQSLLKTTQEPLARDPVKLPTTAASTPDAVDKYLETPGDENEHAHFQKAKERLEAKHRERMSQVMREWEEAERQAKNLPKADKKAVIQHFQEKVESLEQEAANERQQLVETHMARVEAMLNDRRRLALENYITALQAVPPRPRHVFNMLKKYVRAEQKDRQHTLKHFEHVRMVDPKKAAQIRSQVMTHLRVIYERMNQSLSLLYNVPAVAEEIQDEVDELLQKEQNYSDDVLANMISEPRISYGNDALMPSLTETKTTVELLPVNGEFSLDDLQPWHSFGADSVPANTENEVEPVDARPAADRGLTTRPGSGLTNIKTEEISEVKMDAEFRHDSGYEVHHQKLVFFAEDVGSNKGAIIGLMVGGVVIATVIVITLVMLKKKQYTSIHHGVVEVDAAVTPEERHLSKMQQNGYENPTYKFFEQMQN
Observable: pKi
As a rule, pKi stands for the negative log10 of the concentration, concentration in M.

# pKi of CNc1ccc(-c2cn3c(n2)sc2cc(OC)ccc23)cc1 = 8.46

----------
assay: Octanol-phosphate buffered saline partition coefficient, log P of the compound at pH 7.4; format: physicochemical
Observable: logD
Form: value (number only, do not type unit).

Solved entries (count: 2):
[
  {
    "Entry smiles": "CNc1ccc(-c2cn3c(n2)sc2cc(OC)ccc23)cc1",
    "Experimental value": 1.7
  },
  {
    "Entry smiles": "COc1ccc2c(c1)sc1nc(-c3ccc(N(C)C)cc3)cn12",
    "Experimental value": 1.9
  }
]

Record COc1ccc2c(c1)sc1nc(-c3ccc(N4CCCC4)cc3)cn12 , field logD: 1.9

What the record says about CCN(CC)c1ccc(-c2cn3c(n2)sc2cc(OC)ccc23)cc1 : logD is 2.2

logD reported for this compound CNc1ccc(-c2cn3c(n2)sc2cc(O)ccc23)cc1 : 1.2
